Sequence of the target: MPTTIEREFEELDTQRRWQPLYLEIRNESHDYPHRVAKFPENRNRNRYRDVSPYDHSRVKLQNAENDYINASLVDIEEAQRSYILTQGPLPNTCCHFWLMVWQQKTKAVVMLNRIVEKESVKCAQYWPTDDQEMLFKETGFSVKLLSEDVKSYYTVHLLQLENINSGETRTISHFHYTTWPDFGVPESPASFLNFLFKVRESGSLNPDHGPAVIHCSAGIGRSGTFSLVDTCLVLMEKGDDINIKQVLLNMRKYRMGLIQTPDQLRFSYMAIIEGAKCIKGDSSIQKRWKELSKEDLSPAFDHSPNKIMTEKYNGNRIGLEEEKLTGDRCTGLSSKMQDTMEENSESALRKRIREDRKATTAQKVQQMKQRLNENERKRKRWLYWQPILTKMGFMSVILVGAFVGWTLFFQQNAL
result_type: IC50 (µM)

1. CC1(C)CC[C@]2(C(=O)O)CC[C@]3(C)C(=CC[C@@H]4[C@@]5(C)Cc6nccnc6C(C)(C)[C@@H]5CC[C@]43C)[C@@H]2C1 | 8.31
2. CC1(C)CC[C@]2(C(=O)O)CC[C@]3(C)C(=CC[C@@H]4[C@@]5(C)Cc6cnn(C(=O)c7cccnc7)c6C(C)(C)[C@@H]5CC[C@]43C)[C@@H]2C1 | 4.39

(a) CC1(C)CC[C@]2(C(=O)O)CC[C@]3(C)C(=CC[C@@H]4[C@@]5(C)C[C@@H](O)[C@H](O)C(C)(C)[C@@H]5CC[C@]43C)[C@@H]2C1
(b) O=C(O)C(=O)c1ccc(OCc2ccc(COc3ccc(C(=O)C(=O)O)cc3)cc2)cc1
Which value of IC50 is numerically greater: that of a or that of b ? Your answer should be the label of the entry you select.
a

---

Species on record: Homo sapiens
experimental_protocol: Selectivity, ratio of IC50 for GST-tagged human TCPTP to IC50 for GST-tagged human PTP 1B
result_type: Ratio IC50

As a guide, the following entries are already answered.
1. CC1(C)CC[C@]2(C(=O)O)CC[C@]3(C)C(=CC[C@@H]4[C@@]5(C)Cc6cn[nH]c6C(C)(C)[C@@H]5CC[C@]43C)[C@@H]2C1 | 3.6
2. CC1(C)CC[C@]2(C(=O)O)CC[C@]3(C)C(=CC[C@@H]4[C@@]5(C)Cc6cnc(N)nc6C(C)(C)[C@@H]5CC[C@]43C)[C@@H]2C1 | 3.1
3. CC1(C)CC[C@]2(C(=O)O)CC[C@]3(C)C(=CC[C@@H]4[C@@]5(C)C[C@@H](O)[C@H](O)C(C)(C)[C@@H]5CC[C@]43C)[C@@H]2C1 | 3.3
4. CC1(C)CC[C@]2(C(=O)O)CC[C@]3(C)C(=CC[C@@H]4[C@@]5(C)Cc6sc(N)nc6C(C)(C)[C@@H]5CC[C@]43C)[C@@H]2C1 | 3.4
5. CC(=O)n1ncc2c1C(C)(C)[C@@H]1CC[C@]3(C)[C@H](CC=C4[C@@H]5CC(C)(C)CC[C@]5(C(=O)O)CC[C@]43C)[C@@]1(C)C2 | 3.3
6. CC1(C)CC[C@]2(C(=O)O)CC[C@]3(C)C(=CC[C@@H]4[C@@]5(C)Cc6nc7ccccc7nc6C(C)(C)[C@@H]5CC[C@]43C)[C@@H]2C1 | 4.1

(P) CC1(C)CC[C@]2(C(=O)O)CC[C@]3(C)C(=CC[C@@H]4[C@@]5(C)Cc6c([nH]c7ccccc67)C(C)(C)[C@@H]5CC[C@]43C)[C@@H]2C1
(Q) CC1(C)CC[C@]2(C(=O)O)CC[C@]3(C)C(=CC[C@@H]4[C@@]5(C)Cc6cnn(C(=O)c7ccncc7)c6C(C)(C)[C@@H]5CC[C@]43C)[C@@H]2C1
(R) CC1(C)CC[C@]2(C(=O)O)CC[C@]3(C)C(=CC[C@@H]4[C@@]5(C)Cc6cnn(C(=O)c7cccnc7)c6C(C)(C)[C@@H]5CC[C@]43C)[C@@H]2C1
Ascending sort, Ratio IC50. Answer format: list of labels, ordered as asked.
P, Q, R
